ASSAYED_SYSTEM: c-Met (Homo sapiens, UniProt P08581)
Sequence (P08581 25-1390): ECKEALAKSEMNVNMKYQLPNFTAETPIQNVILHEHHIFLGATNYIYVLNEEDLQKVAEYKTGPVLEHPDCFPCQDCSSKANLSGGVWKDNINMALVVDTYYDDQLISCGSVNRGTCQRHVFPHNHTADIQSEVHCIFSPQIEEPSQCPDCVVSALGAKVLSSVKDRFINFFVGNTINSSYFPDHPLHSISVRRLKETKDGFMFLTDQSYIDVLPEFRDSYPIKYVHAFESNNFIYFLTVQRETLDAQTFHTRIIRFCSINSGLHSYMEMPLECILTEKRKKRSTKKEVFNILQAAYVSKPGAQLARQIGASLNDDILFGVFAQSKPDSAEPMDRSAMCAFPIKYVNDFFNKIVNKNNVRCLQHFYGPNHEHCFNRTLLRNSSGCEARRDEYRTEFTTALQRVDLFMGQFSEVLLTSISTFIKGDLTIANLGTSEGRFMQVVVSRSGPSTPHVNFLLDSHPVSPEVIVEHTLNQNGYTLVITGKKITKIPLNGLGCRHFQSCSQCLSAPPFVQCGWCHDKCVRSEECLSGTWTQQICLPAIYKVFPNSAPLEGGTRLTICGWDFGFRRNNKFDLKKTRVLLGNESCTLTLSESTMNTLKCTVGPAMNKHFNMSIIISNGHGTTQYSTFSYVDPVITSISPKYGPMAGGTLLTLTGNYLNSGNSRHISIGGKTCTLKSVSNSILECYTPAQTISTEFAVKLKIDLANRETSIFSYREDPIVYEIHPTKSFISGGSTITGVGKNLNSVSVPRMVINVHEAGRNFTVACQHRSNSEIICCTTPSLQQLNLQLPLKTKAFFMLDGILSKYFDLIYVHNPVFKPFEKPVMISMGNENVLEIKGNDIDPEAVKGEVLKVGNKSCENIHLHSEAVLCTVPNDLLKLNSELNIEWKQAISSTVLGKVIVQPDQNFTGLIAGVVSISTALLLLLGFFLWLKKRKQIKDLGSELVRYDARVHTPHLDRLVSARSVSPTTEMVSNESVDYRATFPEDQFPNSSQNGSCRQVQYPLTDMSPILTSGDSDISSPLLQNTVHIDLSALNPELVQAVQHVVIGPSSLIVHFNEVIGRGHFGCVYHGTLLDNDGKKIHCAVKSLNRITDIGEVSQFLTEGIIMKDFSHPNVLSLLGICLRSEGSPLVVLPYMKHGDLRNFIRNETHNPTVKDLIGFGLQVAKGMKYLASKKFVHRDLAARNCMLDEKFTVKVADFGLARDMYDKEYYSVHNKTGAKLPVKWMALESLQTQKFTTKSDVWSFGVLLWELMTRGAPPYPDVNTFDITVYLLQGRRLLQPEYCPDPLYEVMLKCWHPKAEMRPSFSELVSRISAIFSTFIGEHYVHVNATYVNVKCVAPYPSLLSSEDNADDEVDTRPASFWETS
ASSAY_TEXT: Cell based ELISA assay for HGF stimulated c-Met phosphorylation in S114 cells
Set-up: expressed in transfected cells; host or cells: S114 (murine NIH 3T3 derived)
CONDITION: read-out: c-Met Cell ELISA IC-50
Documented IC50 across a set of molecules
# number only, unit nM dropped from output

query_smiles=Cn1cc(-c2ccc3nnc(Cc4ccc5nccnc5c4)n3n2)cn1 units=nM readout_value=99
query_smiles=COc1ccc(-c2ccc3nnc(Cc4ccc5ncccc5c4)n3n2)cn1 units=nM readout_value=230
query_smiles=Cn1ccc2cc(-c3ccc4nnc(Cc5ccc6ncccc6c5)n4n3)ccc21 units=nM readout_value=260
query_smiles=c1cnc2ccc(Cc3nnc4ccc(-n5ccnc5)nn34)cc2c1 units=nM readout_value=140

Could you share what IC50 was measured for N#Cc1ccc(-c2ccc3nnc(Cc4ccc5ncccc5c4)n3n2)cn1 , tested on c-Met (Homo sapiens, UniProt P08581)? 160

Where do these numbers come from? They come from patent US8173654B2.
